# Tested target: CPT1 liver (Rattus norvegicus)
# Sequence (P32198 1-773): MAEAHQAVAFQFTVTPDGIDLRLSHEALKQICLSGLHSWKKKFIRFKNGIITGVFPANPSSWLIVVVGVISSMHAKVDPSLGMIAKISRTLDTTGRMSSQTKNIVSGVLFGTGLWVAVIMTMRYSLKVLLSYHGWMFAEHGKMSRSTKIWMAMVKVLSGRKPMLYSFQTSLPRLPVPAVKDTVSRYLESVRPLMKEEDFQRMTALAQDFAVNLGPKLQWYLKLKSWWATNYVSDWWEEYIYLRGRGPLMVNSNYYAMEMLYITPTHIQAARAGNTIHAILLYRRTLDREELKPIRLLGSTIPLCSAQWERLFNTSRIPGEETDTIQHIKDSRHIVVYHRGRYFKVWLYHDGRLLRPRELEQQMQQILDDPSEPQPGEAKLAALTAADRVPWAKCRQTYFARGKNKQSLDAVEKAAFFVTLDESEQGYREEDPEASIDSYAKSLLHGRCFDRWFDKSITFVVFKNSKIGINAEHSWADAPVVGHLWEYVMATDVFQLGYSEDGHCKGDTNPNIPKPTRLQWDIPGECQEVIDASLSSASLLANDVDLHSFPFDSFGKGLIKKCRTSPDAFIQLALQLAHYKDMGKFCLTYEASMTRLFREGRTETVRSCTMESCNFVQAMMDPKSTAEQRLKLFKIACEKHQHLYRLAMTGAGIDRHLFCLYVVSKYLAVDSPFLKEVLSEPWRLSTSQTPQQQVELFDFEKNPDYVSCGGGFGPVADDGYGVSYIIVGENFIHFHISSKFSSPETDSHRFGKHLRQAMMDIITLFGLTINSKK
Endpoint name: IC50 (µM)

{"Smiles entry": "CCCCCCCCCCCCCCNC(=O)N[C@H](CC(=O)[O-])C[N+](C)(C)C", "Result unit": "µM", "Test result": 0.36}
{"Smiles entry": "CCCCCCCCCCCCCCNC(=O)N[C@H](CC(=O)O)CN(C)C", "Result unit": "µM", "Test result": 5.7}
